# Tested on: MATIN (Matricaria inodora)
# MEASUREMENT PROTOCOL: Post-emergence herbicidal action against MATIN
# Assay type: in vivo
# CONDITION DESCRIPTION: 20 g/ha, visual assessment after about 3 weeks
Reported Post-emergence effect at 20 g/ha against MATIN in % is given for each of the following compounds.
The figure you give is taken to be in %; do not add the unit.

The examples below pair each entry with its known result.
[
  {
    "COMPOUND": "C[S+]([O-])c1c(OC(F)(F)F)ccc(C(=O)Nc2nnco2)c1Cl (racemic) [Example 1-32]",
    "UNIT SPEC": "%",
    "MEASURED": 100
  },
  {
    "COMPOUND": "CS(=O)(=O)c1c(OC(F)F)ccc(C(=O)Nc2nnco2)c1Cl [Example 1-25]",
    "UNIT SPEC": "%",
    "MEASURED": 100
  },
  {
    "COMPOUND": "CSc1c(OC(F)(F)F)ccc(C(=O)Nc2nnco2)c1Cl [Example 1-31]",
    "UNIT SPEC": "%",
    "MEASURED": 80
  }
]

Lab book: Post-emergence effect at 20 g/ha against MATIN in % of C[S+]([O-])c1c(OC(F)F)ccc(C(=O)Nc2nnco2)c1Cl (racemic) [Example 1-22] noted as 100

Lab book: Post-emergence effect at 20 g/ha against MATIN in % of CS(=O)(=O)c1c(OC(F)(F)F)ccc(C(=O)Nc2nnco2)c1Cl [Example 1-35] noted as 90

====

# System: AVEFA (Avena fatua)
# MEASUREMENT PROTOCOL: Pre-emergence herbicidal effect against AVEFA
# Type: in vivo
# CONDITION DESCRIPTION: 80 g/ha, scored visually after 3 weeks
READOUT NAME: Pre-emergence effect at 80 g/ha against A VEFA in % (%)
The figure you give is taken to be in %; do not add the unit.

The examples below pair each entry with its known result.
[
  {
    "COMPOUND": "CS(=O)(=O)c1c(OC(F)F)ccc(C(=O)Nc2nnco2)c1Cl",
    "MEASURED": 90
  },
  {
    "COMPOUND": "C[S+]([O-])c1c(OC(F)F)ccc(C(=O)Nc2nnco2)c1Cl (racemic)",
    "MEASURED": 80
  },
  {
    "COMPOUND": "C[S+]([O-])c1c(OC(F)(F)F)ccc(C(=O)Nc2nnco2)c1Cl (racemic)",
    "MEASURED": 100
  }
]

Lab book: Pre-emergence effect at 80 g/ha against A VEFA in % of `CS(=O)(=O)c1c(OC(F)(F)F)ccc(C(=O)Nc2nnco2)c1Cl` noted as 100

====

# Test system: VIOTR (Viola tricolor)
# MEASUREMENT PROTOCOL: Pre-emergence herbicidal effect against VIOTR
# Format: in vivo
# CONDITION DESCRIPTION: 20 g/ha, scored visually after 3 weeks
READOUT NAME: Pre-emergence effect at 20 g/ha against VIOTR in % (%)
The figure you give is taken to be in %; do not add the unit.

The examples below pair each entry with its known result.
[
  {
    "COMPOUND": "C[S+]([O-])c1c(OC(F)F)ccc(C(=O)Nc2nnco2)c1Cl (racemic) [Example 1-22]",
    "MEASURED": 100
  },
  {
    "COMPOUND": "C[S+]([O-])c1c(OC(F)(F)F)ccc(C(=O)Nc2nnco2)c1Cl (racemic) [Example 1-32]",
    "MEASURED": 100
  },
  {
    "COMPOUND": "CSc1c(OC(F)(F)F)ccc(C(=O)Nc2nnco2)c1Cl [Example 1-31]",
    "MEASURED": 90
  },
  {
    "COMPOUND": "CS(=O)(=O)c1c(OC(F)(F)F)ccc(C(=O)Nc2nnco2)c1Cl [Example 1-35]",
    "MEASURED": 100
  },
  {
    "COMPOUND": "CS(=O)(=O)c1c(OC(F)F)ccc(C(=O)Nc2nnco2)c1Cl [Example 1-25]",
    "MEASURED": 100
  }
]

Here's the next entry for you.
Reported Pre-emergence effect at 20 g/ha against VIOTR in % (VIOTR (Viola tricolor)) for entry CSc1c(OC(F)F)ccc(C(=O)Nc2nnco2)c1Cl [Example 1-21] is 100

====

# Tested on: ECHCG (Echinochloa crus-galli)
# MEASUREMENT PROTOCOL: Pre-emergence herbicidal effect against ECHCG
# Assay type: in vivo
# CONDITION DESCRIPTION: 20 g/ha, scored visually after 3 weeks
READOUT NAME: Pre-emergence effect at 20 g/ha against ECHCG in % (%)
The figure you give is taken to be in %; do not add the unit.

The examples below pair each entry with its known result.
[
  {
    "MOLECULE": "C[S+]([O-])c1c(OC(F)F)ccc(C(=O)Nc2nnco2)c1Cl (racemic)",
    "MEASURED": 90
  },
  {
    "MOLECULE": "C[S+]([O-])c1c(OC(F)(F)F)ccc(C(=O)Nc2nnco2)c1Cl (racemic)",
    "MEASURED": 100
  },
  {
    "MOLECULE": "CS(=O)(=O)c1c(OC(F)(F)F)ccc(C(=O)Nc2nnco2)c1Cl",
    "MEASURED": 100
  }
]

Here's the next entry for you.
Lab book: Pre-emergence effect at 20 g/ha against ECHCG in % of `CS(=O)(=O)c1c(OC(F)F)ccc(C(=O)Nc2nnco2)c1Cl` noted as 100

====

Reported Post-emergence effect at 20 g/ha against AMARE in % is given for each of the following molecules.
# System: AMARE (Amaranthus retroflexus)
# MEASUREMENT PROTOCOL: Post-emergence herbicidal action against AMARE
# Type: in vivo
# CONDITION DESCRIPTION: 20 g/ha, visual assessment after about 3 weeks
The figure you give is taken to be in %; do not add the unit.

Lab book: Post-emergence effect at 20 g/ha against AMARE in % of C[S+]([O-])c1c(OC(F)(F)F)ccc(C(=O)Nc2nnco2)c1Cl (racemic) [Example 1-32] noted as 100

Lab book: Post-emergence effect at 20 g/ha against AMARE in % of CSc1c(OC(F)(F)F)ccc(C(=O)Nc2nnco2)c1Cl [Example 1-31] noted as 100

Lab book: Post-emergence effect at 20 g/ha against AMARE in % of C[S+]([O-])c1c(OC(F)F)ccc(C(=O)Nc2nnco2)c1Cl (racemic) [Example 1-22] noted as 100

====

# Test system: PHBPU (Pharbitis purpurea)
# MEASUREMENT PROTOCOL: Post-emergence herbicidal action against PHBPU
# Assay type: in vivo
# CONDITION DESCRIPTION: 20 g/ha, visual assessment after about 3 weeks
READOUT NAME: Post-emergence effect at 20 g/ha against PHBPU in % (%)
The figure you give is taken to be in %; do not add the unit.

[
  {
    "COMPOUND": "CS(=O)(=O)c1c(OC(F)(F)F)ccc(C(=O)Nc2nnco2)c1Cl",
    "MEASURED": 90
  }
]

Lab book: Post-emergence effect at 20 g/ha against PHBPU in % of `CS(=O)(=O)c1c(OC(F)F)ccc(C(=O)Nc2nnco2)c1Cl` noted as 100

Lab book: Post-emergence effect at 20 g/ha against PHBPU in % of C[S+]([O-])c1c(OC(F)(F)F)ccc(C(=O)Nc2nnco2)c1Cl (racemic) noted as 90

Lab book: Post-emergence effect at 20 g/ha against PHBPU in % of `CSc1c(OC(F)(F)F)ccc(C(=O)Nc2nnco2)c1Cl` noted as 90

====

Reported Pre-emergence effect at 80 g/ha against SETVI in % is given for each of the following compounds.
# System: SETVI (Setaria viridis)
# MEASUREMENT PROTOCOL: Pre-emergence herbicidal effect against SETVI
# Type: in vivo
# CONDITION DESCRIPTION: 80 g/ha, scored visually after 3 weeks
The figure you give is taken to be in %; do not add the unit.

[
  {
    "COMPOUND": "C[S+]([O-])c1c(OC(F)(F)F)ccc(C(=O)Nc2nnco2)c1Cl (racemic)",
    "UNIT SPEC": "%",
    "MEASURED": 100
  },
  {
    "COMPOUND": "CSc1c(OC(F)(F)F)ccc(C(=O)Nc2nnco2)c1Cl",
    "UNIT SPEC": "%",
    "MEASURED": 100
  },
  {
    "COMPOUND": "C[S+]([O-])c1c(OC(F)F)ccc(C(=O)Nc2nnco2)c1Cl (racemic)",
    "UNIT SPEC": "%",
    "MEASURED": 100
  },
  {
    "COMPOUND": "CS(=O)(=O)c1c(OC(F)F)ccc(C(=O)Nc2nnco2)c1Cl",
    "UNIT SPEC": "%",
    "MEASURED": 100
  },
  {
    "COMPOUND": "CS(=O)(=O)c1c(OC(F)(F)F)ccc(C(=O)Nc2nnco2)c1Cl",
    "UNIT SPEC": "%",
    "MEASURED": 100
  }
]

Here's the next entry for you.
Reported Pre-emergence effect at 80 g/ha against SETVI in % (SETVI (Setaria viridis)) for entry `CSc1c(OC(F)F)ccc(C(=O)Nc2nnco2)c1Cl` is 90
